Reference source: paper PMC3200184

- Tested on: Chinese hamster ovary (CHO) cell line
- assay-overview: MTT in vitro cytotoxicity assay
- Type: cell-based
- condition-parameters: Cricetulus griseus, CHO, read-out: CHO IC50 (μM) n = 2
In this section we review reported IC50 values for a set of compounds.

item-smiles: C=C1C(=O)O[C@@H]2C3=C(C)C(=O)C=C[C@]3(C)CC[C@@H]12
target-of-assay: Chinese hamster ovary (CHO) cell line
IC50: 7.01 µM
//
item-smiles: CC1=C2[C@H]3OC(=O)[C@@H](C)[C@@H]3CC[C@@]2(C)C=CC1=O
target-of-assay: Chinese hamster ovary (CHO) cell line
IC50: > 400 µM
//
item-smiles: C=C1C(=O)C=C[C@]2(C)CC[C@H]3C(=C)C(=O)O[C@H]3[C@@H]12
target-of-assay: Chinese hamster ovary (CHO) cell line
IC50: 17.2 µM

Moving on to the next compound.
Form field: reported IC50 of C=C1C(=O)O[C@@H]2[C@H]3[C@@H](C)C(=O)C=C[C@]3(C)CC[C@@H]12
41.9 µM

----------
- Test system: Chinese hamster ovary (CHO) cell line
- assay-overview: MTT in vitro cytotoxicity assay
- Assay type: cell-based
- condition-parameters: Cricetulus griseus, read-out: CHO IC50 (μM) n = 2; Table 2; CHO cells, MTT
measured-endpoint: IC50 (µM)
The answer is to be given in µM; state only the numeric part.

Form field: reported IC50 of C=C1C(=O)C[C@H]2C1CCC1(C)CCC(=O)C(C)C21 (some centres unmarked)
124
